- Tested on: HS 578T breast
- measurement protocol: NCI tumour cell line growth inhibition, 48 h
The entries below are paired with their reported TGI.

| compound | qualifier sign | TGI [µM] |
| --- | --- | --- |
| O=C1CCSc2c(cnc3ccccc23)N1 | > | 100 |
| COc1cnc2c(c1)C(=O)c1c-2n(CCCN2CCN(C)CC2)c(=O)c2cc(Cl)ccc12 | = | 36.2 |
| COc1cc2c(cc1OC)[C@@]1(C)C(=O)c3cc4c(cc3[C@H]1N(C)C2=O)OCO4 | > | 100 |
| C=CC(c1ccccc1)C1(O)c2cccc(O)c2C(=O)c2c(O)cccc21 (centres undefined) | = | 34.8 |
| Cc1ccc(NC(=O)c2ccnc(N3CCCC3)c2)cc1-c1ccc(C(=O)NCC2CC2)cc1 | > | 25 |
| CO[C@H]1CC[C@@]2(C)C(=CC[C@H]3[C@@H]4C[C@H](O)C[C@@]4(C)CC[C@@H]32)C1 | = | 9.41 |
| O=Cc1ccc2c(c1)CC1(C2)Cc2ccc(C=O)cc2C1 | = | 28.7 |
| CN1CCC/C1=C1\C(=O)c2cccn2C1=O | > | 100 |
| NC(=O)Oc1cc(OC(N)=O)cc(N(CCCl)CCCl)c1 | = | 76.3 |

* * *

- Tested on: HS 578T breast
- measurement protocol: NCI tumour cell line growth inhibition, 48 h
Parameter threshold = 70 µM. Response is condition met when TGI meets or exceeds it, else condition not met.

| compound | qualitative label |
| --- | --- |
| CCOC(=O)c1cc2ncccc2c2ccccc12 | condition met |
| CC(Oc1ccc(Cl)cc1Cl)C(=O)NN1C(=O)CSC1c1ccc(Cl)cc1 (stereo not given) | condition met |
| CCCCCCCCCCCCCCCCOCCCOP(=O)(O)C1CCCN(O)C1=O (stereo not given) | condition not met |
| COc1ccc(-c2nc(-c3nc4cc(C)c(C)cc4[nH]3)cc3c2[nH]c2ccccc23)cc1 | condition met |
| O=C(/C=C\c1ccccc1-c1ccccc1)c1ccccc1 | condition met |
| CO[C@H](C(=O)N[C@@H](CCCCNC(=O)OCc1ccccc1)C(=O)OC(C)(C)C)[C@@H]1Cc2cc3cc(OC4CC(OC5CC(O)C(O)C(C)O5)C(O)C(C)O4)c(C)c(O)c3c(O)c2C(=O)[C@H]1OC1CC(OC2CC(OC3CC(C)(O)C(O)C(C)O3)C(O)C(C)O2)C(O)C(C)O1 (stereo not given in full) | condition not met |
| CC1=CCC[C@]2(C)C1=CC(=O)O[C@H]2c1ccoc1 | condition met |
| COc1cc(/C=C2\N=C(c3ccccc3)N(/N=C/c3cc4cc(C)ccc4nc3Cl)C2=O)cc(OC)c1OC | condition met |
| CCCC(=O)NNc1[nH]c(-c2ccc(OC)cc2)cc1C(=O)OCC | condition not met |
| C[C@@H]1OC2(O)[C@@H]3CCCN3C(=O)N(Cc3ccccc3)N2C1=O (stereo not given in full) | condition met |
| COC(=O)c1nc2c3c(cccc3c1C(=O)OC)Nc1ccccc1-2 | condition met |
| CSc1ccc(-c2cc(-c3nc4ccccc4[nH]3)nc3[nH]c(-c4nc5ccccc5[nH]4)cc(=O)c23)cc1 | condition met |
| COc1ccc(N2C(=O)/C(=C\c3cc(OC)c(OC)c(OC)c3)S(=O)(=O)C2c2ccccc2)cc1 (stereo not given) | condition met |
| COc1ccccc1CNCc1nc2ccccc2[nH]1 | condition met |
| Cc1ccnc2c1ccc1nc3ccccc3n12 | condition met |
| Cn1cc(C2=C(c3c4n(c5ccccc35)CCC(CN)CC4)C(=O)NC2=O)c2ccccc21 (stereo not given) | condition not met |
| C/C1=C\CC[C@@]2(C)O[C@@H]2[C@H]2OC(=O)C(C)C2C[C@H]1O (stereo not given in full) | condition met |
| CC(C)(C)C(=O)Nc1cccc(-c2ccc[nH]2)n1 | condition met |
| CC(=O)OCC1OC(S[As](C)C)C(OC(C)=O)C1OC(C)=O (stereo not given) | condition not met |

* * *

- Test system: SK-OV-3 ovarian
- measurement protocol: NCI tumour cell line growth inhibition, 48 h
Below, each entry is listed with its recorded GI50.
reported endpoint: GI50

| compound | reported endpoint | result |
| --- | --- | --- |
| O=C(Cn1ccnc1[N+](=O)[O-])NCC(F)(F)C(F)(F)F | GI50 | > 100 µM |
| CO[C@H]1CC[C@@]2(C)C(=CC[C@H]3[C@@H]4C[C@H](O)C[C@@]4(C)CC[C@@H]32)C1 | GI50 | 4.46 µM |
| Cc1ccc(C(=O)NC2CCCCC2)cc1-c1ccc(C(=O)NCC2CC2)cc1 | GI50 | > 25 µM |
| C#C[C@@]1(O)[C@@H](CO)O[C@@H](n2cc(F)c3c(N)ncnc32)[C@@H]1O | GI50 | 0.285 µM |
| CCOC(=O)c1c(Cl)c2c(n1Cc1cc(OC)cc(OC)c1)-c1oncc1CCC2 | GI50 | 0.4 µM |
| COc1cc2c(cc1OC)[C@@]1(C)C(=O)c3cc4c(cc3[C@H]1N(C)C2=O)OCO4 | GI50 | 95.5 µM |
| Cc1ccc(S(=O)(=O)n2cc(C(=O)C(=O)Nc3ccncc3)c3ccccc32)cc1 | GI50 | 19.6 µM |
| Cn1cc(C2=C(c3c4n(c5ccccc35)CCC(CN)CC4)C(=O)NC2=O)c2ccccc21 (stereo unspecified) | GI50 | 4.99 µM |
| CCN(CC)CCOc1cc2c(C(=O)OC)c(C)oc2cc1C(C)=O | GI50 | 14.7 µM |
| NC(=O)Oc1cc(OC(N)=O)cc(N(CCCl)CCCl)c1 | GI50 | 13.1 µM |
| CN1CCN(Cc2ccc(Nc3ncc(Cl)c(Nc4ccccc4S(=O)(=O)N(C)C)n3)cc2)CC1 | GI50 | 0.219 µM |
| Cc1ccc2sc3c(NCCCNCCO)nc4ccccc4c3c(=O)c2c1 | GI50 | 1.45 µM |
| Cc1cccc(N=C2c3cc([N+](=O)[O-])ccc3-c3c2cc([N+](=O)[O-])cc3[N+](=O)[O-])c1 | GI50 | > 100 µM |
| Cc1cc(C)nc(SC2=C(Nc3cccc(Cl)c3)C(=O)N(Cc3ccccc3)C2=O)n1 | GI50 | > 170 µM |
| Cn1cnc2c(NCc3ccccc3)nc(NCCO)nc21 | GI50 | 241 µM |
| CC(=O)OCC1OC(S[As](C)C)C(OC(C)=O)C1OC(C)=O (stereo unspecified) | GI50 | 1.14 µM |

* * *

- Test system: EKVX NSCLC
- measurement protocol: NCI tumour cell line growth inhibition, 48 h

| molecule | TGI |
| --- | --- |
| CCn1c(SCC(=O)NNC(=S)Nc2ccc(F)cc2)nc2ccccc2c1=O | > 100 µM |
| CCCCCCCCCCCC(=O)OCC1OC(n2cc(F)c(=O)[nH]c2=O)C(N)C(O)C1O (stereo unspecified) | > 100 µM |
| Nc1nncs1 | > 5000 µM |
| Clc1ccc2nc(CCSCCc3nc4ccc(Cl)cc4[nH]3)[nH]c2c1 | 31.3 µM |
| CC1=CCC[C@]2(C)C1=CC(=O)O[C@H]2c1ccoc1 | > 100 µM |
| CCN(CC)CCOc1cc2c(C(=O)OC)c(C)oc2cc1C(C)=O | 22.1 µM |
| COc1cc2c(cc1OC)[C@@]1(C)C(=O)c3cc4c(cc3[C@H]1N(C)C2=O)OCO4 | > 100 µM |
| O=C(Nc1ccccc1)C(=O)C(C(=O)c1ccccc1)C(c1ccccc1)c1ccccc1 (stereo unspecified) | > 10 µM |
| CSC(=N)N1N=C2c3ccccc3CC[C@@H]2[C@@H]1c1ccccc1 | 44.4 µM |
| COc1ccc(C(=O)N2CCN(c3ccc4[nH]c(=O)oc4c3)CC2)cc1 | > 100 µM |
| CCOC(=O)/C=C1\Nc2ccccc2-n2nnnc21 | > 100 µM |

* * *

- System: SK-MEL-5 melanoma
- measurement protocol: NCI tumour cell line growth inhibition, 48 h
The molecules listed here are annotated with their TGI.
reported endpoint: TGI

| molecule | result |
| --- | --- |
| Cc1ncc([N+](=O)[O-])n1CCNC(=O)CCn1ccnc1[N+](=O)[O-] | > 100 µM |
| C(/C=N/NC1=NCCCN1)=N\NC1=NCCCN1 | > 100 µM |
| Clc1ccc(CO/N=C(\Cn2ccnc2)c2ccc(Cl)cc2Cl)c(Cl)c1 | 3.03 µM |
| CN(C)CC1CCn2c(c(C3=C(c4cn(C)c5ccccc45)C(=O)NC3=O)c3ccccc32)C1 (configuration not stated) | 7.49 µM |
| Cc1cc(C)nc(SC2=C(Nc3cccc(Cl)c3)C(=O)N(Cc3ccccc3)C2=O)n1 | > 170 µM |
| CCOC(=O)Oc1cc2c(ccn2C)c2c1c1ccccc1n2C(=O)OCC | > 100 µM |
| O=S1c2ccc(Cl)cc2CC(SSC2Cc3cc(Cl)ccc3S(=O)c3ccccc32)c2ccccc21 (configuration not stated) | > 100 µM |
